Measured target: human DLL3 protein (extracellular segment, His tag) (human) (UniProt Q9NYJ7)
Sequence (Q9NYJ7 27-492): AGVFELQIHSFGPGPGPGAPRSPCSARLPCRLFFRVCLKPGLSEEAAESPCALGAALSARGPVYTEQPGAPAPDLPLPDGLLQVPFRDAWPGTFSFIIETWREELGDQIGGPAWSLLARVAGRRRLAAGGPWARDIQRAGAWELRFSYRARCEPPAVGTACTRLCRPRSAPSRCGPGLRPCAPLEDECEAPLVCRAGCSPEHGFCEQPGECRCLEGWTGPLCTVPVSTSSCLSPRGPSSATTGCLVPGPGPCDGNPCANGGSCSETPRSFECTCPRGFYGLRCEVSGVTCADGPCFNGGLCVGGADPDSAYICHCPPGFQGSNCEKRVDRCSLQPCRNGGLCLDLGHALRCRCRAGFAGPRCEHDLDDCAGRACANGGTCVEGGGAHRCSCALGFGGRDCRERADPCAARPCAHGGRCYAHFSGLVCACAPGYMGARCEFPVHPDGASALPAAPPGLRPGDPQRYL
Protocol notes: SPR (Biacore 8K), antibody captured on Protein A chip, DLL3 antigen in solution, 1:1 Langmuir fit
Label Y when koff is at or above 0.0001 s⁻¹; otherwise label N.

binder="mab014 scFv-hFc (Fc fusion, part only; not given: Linker and human IgG1 Fc, not shown: a dimerising Fc or GST) scFv, part: DIQMTQSSSSFSVSLGDRVTITCKASEDIYNRLAWYQQKPGNTPRLLISGATSLETGVPSRFSGSGSGKDFTLSITSLQTEDVATYYCQQYWSLPWTFGGGTKLEIKEVQLHQSGPELVKPGTSVKISCKASGYTFTDYYMNWVKQSHGKSLEWIGDINPNHGDTGYNQKFTGKATLTVDKSSSTAYMELRSLTSEDSAVYYCARNFFYYGTTYGWYFDVWGTGTTVTVSS" answer_label=N
binder="Hab006VL4VH1-hFc (scFv, part only; not given: scFv linker and human IgG1 Fc, V domains shown, not shown: another chain or arm of the molecule; a dimerising Fc or GST; small tags and cut ends) VL: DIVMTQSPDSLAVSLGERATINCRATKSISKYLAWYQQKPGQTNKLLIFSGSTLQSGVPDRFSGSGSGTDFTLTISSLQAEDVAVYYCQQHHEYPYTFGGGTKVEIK VH: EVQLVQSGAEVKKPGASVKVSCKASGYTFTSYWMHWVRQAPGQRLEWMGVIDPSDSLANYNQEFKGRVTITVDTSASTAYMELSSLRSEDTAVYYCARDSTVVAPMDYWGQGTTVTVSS" answer_label=Y
binder="Hab009VL1aVH1-hFc (scFv, part only; not given: scFv linker and human IgG1 Fc, V domains shown, not shown: another chain or arm of the molecule; a dimerising Fc or GST; small tags and cut ends) VL: DIVMTQSPLSLPVTPGEPASISCRASQTISDYLHWYLQKPGQSPQLLIKYASQSISGVPDRFSGSGSGSDFTLKISRVEAEDVGVYYCQQGHSFPLTFGQGTKLEIK VH: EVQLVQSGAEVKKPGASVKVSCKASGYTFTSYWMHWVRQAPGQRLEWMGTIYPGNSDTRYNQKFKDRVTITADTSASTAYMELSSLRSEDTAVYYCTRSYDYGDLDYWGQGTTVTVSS" answer_label=Y
binder="Hab006VL1VH4-hFc (scFv, part only; not given: VL-VH linker and human IgG1 Fc, V domains shown, not shown: another chain or arm of the molecule; a dimerising Fc or GST; small tags and cut ends) VL: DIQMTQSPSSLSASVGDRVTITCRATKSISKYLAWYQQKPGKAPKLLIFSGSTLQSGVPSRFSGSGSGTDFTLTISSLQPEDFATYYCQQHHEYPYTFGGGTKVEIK VH: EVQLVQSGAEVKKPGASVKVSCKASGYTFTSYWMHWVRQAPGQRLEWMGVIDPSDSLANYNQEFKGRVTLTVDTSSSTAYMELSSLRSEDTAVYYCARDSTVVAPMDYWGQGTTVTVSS" answer_label=Y
binder="Hab014VL3VH1-hFc (scFv, part only; not given: VL-VH linker and human IgG1 Fc, V domains shown, not shown: another chain or arm of the molecule; a dimerising Fc or GST; small tags and cut ends) VL: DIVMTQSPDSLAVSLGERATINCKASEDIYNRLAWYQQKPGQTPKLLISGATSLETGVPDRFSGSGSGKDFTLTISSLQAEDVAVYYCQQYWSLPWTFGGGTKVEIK VH: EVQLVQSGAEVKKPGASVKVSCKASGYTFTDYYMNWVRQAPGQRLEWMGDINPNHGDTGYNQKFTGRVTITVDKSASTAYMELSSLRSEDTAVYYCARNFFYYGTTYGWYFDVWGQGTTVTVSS" answer_label=Y
binder="Hab015VL4VH6a-hFc (scFv, part only; not given: scFv linker and human IgG1 Fc, V domains shown, not shown: another chain or arm of the molecule; a dimerising Fc or GST; small tags and cut ends) VL: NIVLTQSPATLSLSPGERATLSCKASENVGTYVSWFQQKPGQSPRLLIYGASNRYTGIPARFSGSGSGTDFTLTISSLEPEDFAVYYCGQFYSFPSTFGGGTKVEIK VH: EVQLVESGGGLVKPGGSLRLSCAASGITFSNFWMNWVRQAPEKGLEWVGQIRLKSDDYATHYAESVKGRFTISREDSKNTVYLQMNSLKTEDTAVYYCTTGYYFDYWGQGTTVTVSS" answer_label=N
